System: T-cell clone CSF-3
Assay: Proliferative assay of T-cell clone CSF-3 (3H-thymidine incorporation)
Format: cell-based, human
Settings: percentage of highest proliferative response (100% = 28,255 c.p.m. for peptide 77); Table 9
Where no end group is shown, it is not given here.
readout: Potency max. response (%)

DNITSSVLFN [Peptide 71, DNITSSVLFN] :: 60.6
FNITSSTCEL [Peptide 64, FNITSSTCEL] :: 66.3
ENVKKSRRLI [Peptide 66, ENVKKSRRLI] :: 64.1
LHIISKRVEA [Peptide 61, LHIISKRVEA] :: 70.0
GHIKKKRVEA [Peptide 63, GHIKKKRVEA] :: 56.5
SFIYSVVCLV [Peptide 62, SFIYSVVCLV] :: 75.7

* * *

Tested on: peripheral blood mononuclear cells
Test: IL-7-modified 7-day primary proliferation assay of peripheral blood mononuclear cells
Format: cell-based, human
Settings: number of wells of 10 with positive primary proliferative response; 15 μg/ml peptide; background 1,306 ± 582 c.p.m.; Table 9
Where no end group is shown, it is not given here.
readout: PB PP

SFIYSVVCLV [Peptide 62, SFIYSVVCLV] :: 9
ENVKKSRRLI [Peptide 66, ENVKKSRRLI] :: 0
GHIKKKRVEA [Peptide 63, GHIKKKRVEA] :: 0
LHIISKRVEA [Peptide 61, LHIISKRVEA] :: 0
FNITSSTCEL [Peptide 64, FNITSSTCEL] :: 1
DNITSSVLFN [Peptide 71, DNITSSVLFN] :: 5

Values were extracted from patent US20040072246A1.
